FYI, the data here is from patent US12215093B2.

Target: EP2 (Homo sapiens, UniProt P43116);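 further: functional calcium flux assay in stably transfected HEK293 cells expressing EP2 coupled via a promiscuous G protein, clytin luminescence read as area under the curve, 30 min compound preincubation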
Sequence (P43116 whole entry): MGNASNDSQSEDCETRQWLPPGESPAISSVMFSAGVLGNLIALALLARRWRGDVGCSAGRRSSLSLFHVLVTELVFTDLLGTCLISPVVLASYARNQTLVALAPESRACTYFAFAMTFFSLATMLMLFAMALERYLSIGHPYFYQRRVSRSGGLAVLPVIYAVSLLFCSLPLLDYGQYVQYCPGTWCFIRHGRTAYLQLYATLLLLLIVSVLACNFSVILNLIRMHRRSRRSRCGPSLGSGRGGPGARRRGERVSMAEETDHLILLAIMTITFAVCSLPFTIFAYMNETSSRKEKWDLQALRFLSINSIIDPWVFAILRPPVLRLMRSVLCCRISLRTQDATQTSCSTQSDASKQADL
Overview of recorded IC50 for various compounds
The response must be a number in nM with no trailing unit.

Answered cases to consult:
COc1cc(C(=O)NC2CC3(C2)CC(C(=O)O)C3)c2c(cnn2Cc2ccc(-c3ccccc3)cc2)c1 (stereo not shown) [Example 159] = 65
COc1ccc(C(=O)NC2CC3(CC(CC(=O)O)C3)C2)c2c1cnn2Cc1ccc(-c2ccccc2)cc1 (stereo not shown) [Example 161] = 63
CNC(=O)c1cc(-c2ccc(Cn3ccc4c(F)ccc(C(=O)NC5CC6(C5)CC(C(=O)O)C6)c43)cc2)ccn1 (stereo not shown) [Example 60] = 40

Query: Quick check: IC50 on EP2 (Homo sapiens, UniProt P43116), item O=C(NC1CC2(C1)CC(C(=O)O)C2)c1ccc(F)c2ccn(Cc3ccc(-c4cccc(OC(F)F)c4)cc3)c12 (stereo not shown) [Example 50] ?
Response: 67

Query: Quick check: IC50 on EP2 (Homo sapiens, UniProt P43116), item COc1ccc(-c2ccc(C(C)n3ccc4c(F)ccc(C(=O)NC5CC6(C5)CC(C(=O)O)C6)c43)cc2)cn1 (racemic) [Example 119] ?
Response: 59

Query: Quick check: IC50 on EP2 (Homo sapiens, UniProt P43116), item COc1cccc(-c2ccc(C(C)n3ccc4c(F)ccc(C(=O)NC5CC6(C5)CC(C(=O)O)C6)c43)cc2)c1 (racemic) [Example 117] ?
Response: 87

Query: Quick check: IC50 on EP2 (Homo sapiens, UniProt P43116), item O=C(NC1CC2(C1)CC(C(=O)O)C2)c1ccc(F)c2ccn(Cc3ccc4ccc(Br)cc4c3)c12 (stereo not shown) [Example 44] ?
Response: 30

Query: Quick check: IC50 on EP2 (Homo sapiens, UniProt P43116), item O=C(O)CC1CC2(C1)CC(NC(=O)c1ccc(Cl)c3cnn(Cc4ccc(-c5ccccc5F)cc4)c13)C2 (stereo not shown) [Example 143] ?
Response: 35

Query: Quick check: IC50 on EP2 (Homo sapiens, UniProt P43116), item O=C(NC1CC2(C1)CC(C(=O)O)C2)c1ccc(F)c2ccn(Cc3ccc4cc(F)ccc4c3)c12 (stereo not shown) [Example 37] ?
Response: 70

Query: Quick check: IC50 on EP2 (Homo sapiens, UniProt P43116), item N#Cc1cccc(-c2ccc(Cn3ccc4c(F)ccc(C(=O)NC5CC6(C5)CC(C(=O)O)C6)c43)cc2)c1 (stereo not shown) [Example 55] ?
Response: 46

* * *

Target: EP4 (Homo sapiens, UniProt P35408)
Sequence (P35408 whole entry): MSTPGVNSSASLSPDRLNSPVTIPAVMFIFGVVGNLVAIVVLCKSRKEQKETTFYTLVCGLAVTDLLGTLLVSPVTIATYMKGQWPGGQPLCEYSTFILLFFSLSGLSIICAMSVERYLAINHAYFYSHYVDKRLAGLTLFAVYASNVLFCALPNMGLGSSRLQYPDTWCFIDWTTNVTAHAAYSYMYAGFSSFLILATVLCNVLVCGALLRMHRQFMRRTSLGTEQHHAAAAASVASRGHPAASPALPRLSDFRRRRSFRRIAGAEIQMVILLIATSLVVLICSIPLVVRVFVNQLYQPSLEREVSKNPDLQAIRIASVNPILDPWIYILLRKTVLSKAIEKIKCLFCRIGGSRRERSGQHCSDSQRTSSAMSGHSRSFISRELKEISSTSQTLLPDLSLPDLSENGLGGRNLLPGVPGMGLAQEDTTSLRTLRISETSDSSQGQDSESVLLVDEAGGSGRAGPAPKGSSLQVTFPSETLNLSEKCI
Experiment: Functional calcium flux assay, EP4
Conditions: stably transfected HEK293 cells; PGE2 10 nM; read-out: EP4 Ca2+-flux assay IC50
assay readout: pIC50
Bear in mind: pIC50 is minus log10 of a mol/L concentration; give just that figure.

O=C(NC1CC2(C1)CC(C(=O)O)C2)c1ccc(F)c2ccn(Cc3ccc(-c4ccccc4)c(F)c3)c12 (stereo not shown) [Example 65] = 8.52

Query: Give its pIC50 value. Item: CCOc1cc(-c2ccc(C(C)n3ccc4c(F)ccc(C(=O)NC5CC6(C5)CC(C(=O)O)C6)c43)cc2)ccn1 (racemic) [Example 118]
Response: 8.59

Query: Give its pIC50 value. Item: [2H]C([2H])([2H])C([2H])(c1ccc(-c2ccccc2)cc1)n1ncc2cccc(C(=O)NC3CC4(C3)CC(C(=O)O)C4)c21 (racemic) [Example 168]
Response: 8.92
